Tested on: SiHa
Assay: Antiproliferative activity against human SiHa cells after 48 hrs by CCK8 assay
Format: functional, cell-based
Property name: pIC50
pIC50 here: minus log base 10 of the concentration, concentration in moles per litre.

Exercise: Query: pIC50; subject: O=C1CCC[C@@H]2[C@H]3CCCN4CCC[C@@H](CN12)[C@@H]34 [MATRINE]
Key: 2.24

* * *

System: PANC-1
Experiment: Antiproliferative activity against human PANC1 cells after 72 hrs by MTT assay
Type: functional, cell-based
Conditions: PANC-1, 72 h
Property name: IC50 (mM)
Write it as a number; the unit mM goes unstated.

Exercise: Query: IC50; subject: `O=C1CCC[C@@H]2[C@H]3CCCN4CCC[C@@H](CN12)[C@@H]34`
Key: 3.66

* * *

Test system: HOS-TE85
Assay: Growth inhibition of human MNNG-HOS cells after 48 hrs by MTT assay
Assay type: functional, cell-based
Conditions: HOS-TE85, 48 h
Property name: IC50 (mM)
Write it as a number; the unit mM goes unstated.

Exercise: Query: IC50; subject: `O=C1CCC[C@@H]2[C@H]3CCCN4CCC[C@@H](CN12)[C@@H]34`
Key: 3.1

* * *

System: K562
Experiment: Antiproliferative activity against human K562 cells after 72 hrs by MTT assay
Assay type: functional, cell-based
Settings: K562, 72 h
Property name: IC50
The reply should consist of the numeric value with the unit placed after it.

Exercise: Query: IC50; subject: O=C1CCC[C@@H]2[C@H]3CCCN4CCC[C@@H](CN12)[C@@H]34 [MATRINE]
Key: 1770 µM
